- test.name: Cmax in C57 mouse at 3 mg/kg, po measured upto 24 hrs by LC-MS/MS analysis
- Assay type: ADME, organism-based
- Set-up: dose 3 mg/kg, time < 24 hrs, route po
- test.context: in vivo
reported.property: Cmax (ng/mL)
Your answer is read as ng/mL, so omit the unit and give the number.

The compound Cc1nnc2n1-c1ccc(-c3ccc(CN(C)CCCCc4cccc5c4CN(C4CCC(=O)NC4=O)C5=O)cc3)cc1C(Nc1ccc(Cl)cc1)CC2 (stereo unspecified) showed Cmax equal to 51

* * *

- test.name: Clearance in C57 mouse at 3 mg/kg, iv measured upto 24 hrs by LC-MS/MS analysis
- Type: ADME, organism-based
- test.context: in vivo
reported.property: clearance (mL/min/kg)
Your answer is read as mL/min/kg, so omit the unit and give the number.

The compound Cc1nnc2n1-c1ccc(-c3ccc(CN(C)CCCCc4cccc5c4CN(C4CCC(=O)NC4=O)C5=O)cc3)cc1C(Nc1ccc(Cl)cc1)CC2 (stereo unspecified) showed clearance equal to 16.9

* * *

- assay.system: Bromodomain-containing protein 3 (Homo sapiens)
- Sequence (Q15059 whole entry, the tested form may be a part): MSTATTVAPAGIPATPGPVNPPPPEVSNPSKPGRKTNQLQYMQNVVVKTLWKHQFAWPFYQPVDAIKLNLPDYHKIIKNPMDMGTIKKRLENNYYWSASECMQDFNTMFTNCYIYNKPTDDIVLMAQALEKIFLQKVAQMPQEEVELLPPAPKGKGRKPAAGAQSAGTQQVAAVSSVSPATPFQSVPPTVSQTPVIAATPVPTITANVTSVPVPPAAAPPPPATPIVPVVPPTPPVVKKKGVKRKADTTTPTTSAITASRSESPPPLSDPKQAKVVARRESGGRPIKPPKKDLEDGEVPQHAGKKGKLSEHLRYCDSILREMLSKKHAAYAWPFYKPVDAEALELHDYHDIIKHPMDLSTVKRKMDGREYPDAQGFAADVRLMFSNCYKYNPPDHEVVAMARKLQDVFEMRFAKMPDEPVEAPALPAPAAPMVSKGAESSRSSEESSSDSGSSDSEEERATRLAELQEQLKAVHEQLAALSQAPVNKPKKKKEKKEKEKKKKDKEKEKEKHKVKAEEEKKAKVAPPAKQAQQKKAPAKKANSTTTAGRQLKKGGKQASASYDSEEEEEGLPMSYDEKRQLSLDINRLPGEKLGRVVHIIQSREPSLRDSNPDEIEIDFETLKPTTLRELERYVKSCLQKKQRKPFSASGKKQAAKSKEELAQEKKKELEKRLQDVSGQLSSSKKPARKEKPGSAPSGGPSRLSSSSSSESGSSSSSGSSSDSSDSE
- test.name: Binding affinity to recombinant human BRD3 BD2 (306 to 417 residues) assessed as inhibition constant by fluorescence polarization binding assay
pKi: −log10 of the molar value.
reported.property: pKi

1. Cc1nnc2n1-c1ccc(-c3cnn(CC(=O)NCCCC#Cc4cccc5c4CN(C4CCC(=O)NC4=O)C5=O)c3)cc1C(Nc1ccc(Cl)cc1)CC2 (centres undefined)
2. Cc1nnc2n1-c1ccc(-c3ccc(CNCCCCc4cccc5c4CN(C4CCC(=O)N(C)C4=O)C5=O)cc3)cc1C(Nc1ccc(Cl)cc1)CC2 (centres undefined)
3. CNCc1ccc(-c2ccc3c(c2)C(Nc2ccc(Cl)cc2)CCc2nnc(C)n2-3)cc1 (centres undefined)
Prompt line: Sort (3 compounds) by pKi: min first. To answer, write out the labels according to the requested order.
Response line: 3, 1, 2
(3: 7.33, 1: 8.30, 2: 8.65)

1. Cc1nnc2n1-c1ccc(-c3ccc(CNCCCCCCc4cccc5c4CN(C4CCC(=O)NC4=O)C5=O)cc3)cc1C(Nc1ccc(Cl)cc1)CC2 (centres undefined)
2. Cc1nnc2n1-c1ccc(-c3ccc(CNCCCCC#Cc4cccc5c4CN(C4CCC(=O)NC4=O)C5=O)cc3)cc1C(Nc1ccc(Cl)cc1)CC2 (centres undefined)
Prompt line: For the two items 1 and 2 , which reports the higher pKi value? Choose, then provide that item's label.
Response line: 1
(1: 8.67, 2: 8.33)

P. Cc1nnc2n1-c1ccc(-c3ccc(CNCCCC#Cc4cccc5c4CN(C4CCC(=O)NC4=O)C5=O)cc3)cc1C(Nc1ccc(Cl)cc1)CC2 (centres undefined)
Q. Cc1nnc2n1-c1ccc(-c3ccc(CNCCCc4cccc5c4CN(C4CCC(=O)NC4=O)C5=O)cc3)cc1C(Nc1ccc(Cl)cc1)CC2 (centres undefined)
Prompt line: For the two items P and Q , which reports the higher pKi value? Choose, then provide that item's label.
Response line: Q
(Q: 8.61, P: 8.30)

* * *

- System: MV4-11
- test.name: Antiproliferative activity against human MV4-11 cells assessed as cell growth inhibition measured after 3 days by CellTitre-Glo assay
- Type: functional, cell-based
- test.context: MV4-11, 72 h
pIC50: −log10 of the molar value.
reported.property: pIC50

Below, each entry is followed by its recorded pIC50 result.
{"columns": ["molecule", "assay.system", "pIC50"],
 "data": [
  ["Cc1nnc2n1-c1ccc(-c3ccc(CNCCCC#Cc4cccc5c4CN(C4CCC(=O)NC4=O)C5=O)cc3)cc1C(Nc1ccc(Cl)cc1)CC2 (stereo not drawn)", "MV4-11", 6.19],
  ["Cc1nnc2n1-c1ccc(-c3ccc(CNCCCCc4cccc5c4CN(C4CCC(=O)N(C)C4=O)C5=O)cc3)cc1C(Nc1ccc(Cl)cc1)CC2 (stereo not drawn)", "MV4-11", 6.23],
  ["Cc1nnc2n1-c1ccc(-c3ccc(CNCCC#Cc4cccc5c4CN(C4CCC(=O)NC4=O)C5=O)cc3)cc1C(Nc1ccc(Cl)cc1)CC2 (stereo not drawn)", "MV4-11", 5.81],
  ["Cc1nnc2n1-c1ccc(-c3ccc(CNCCCCCCc4cccc5c4CN(C4CCC(=O)NC4=O)C5=O)cc3)cc1C(Nc1ccc(Cl)cc1)CC2 (stereo not drawn)", "MV4-11", 9.40],
  ["Cc1nnc2n1-c1ccc(-c3cnn(CC(=O)NCCCC#Cc4cccc5c4CN(C4CCC(=O)NC4=O)C5=O)c3)cc1C(Nc1ccc(Cl)cc1)CC2 (stereo not drawn)", "MV4-11", 5.53],
  ["Cc1nnc2n1-c1ccc(-c3ccc(CNCCCCCC#Cc4cccc5c4CN(C4CCC(=O)NC4=O)C5=O)cc3)cc1C(Nc1ccc(Cl)cc1)CC2 (stereo not drawn)", "MV4-11", 7.70],
  ["Cc1sc2c(c1C)C(c1ccc(Cl)cc1)=N[C@@H](CC(=O)NCCCCNC(=O)COc1cccc3c1C(=O)N(C1CCC(=O)NC1=O)C3=O)c1nnc(C)n1-2 (stereo partly drawn)", "MV4-11", 7.93],
  ["Cc1nnc2n1-c1ccc(-c3ccc(CNCCCCCc4cccc5c4CN(C4CCC(=O)NC4=O)C5=O)cc3)cc1C(Nc1ccc(Cl)cc1)CC2 (stereo not drawn)", "MV4-11", 6.63]
]}

A. Cc1nnc2n1-c1ccc(-c3ccc(CNCCCCCCCc4cccc5c4CN(C4CCC(=O)NC4=O)C5=O)cc3)cc1C(Nc1ccc(Cl)cc1)CC2 (stereo not drawn)
B. Cc1nnc2n1-c1ccc(-c3ccc(CNCC#Cc4cccc5c4CN(C4CCC(=O)NC4=O)C5=O)cc3)cc1C(Nc1ccc(Cl)cc1)CC2 (stereo not drawn)
Prompt line: Could you tell me which of A and B has the lower pIC50 reading? Choose, then provide that item's label.
Response line: B

src = ChEMBL document CHEMBL5321219
